- Test target: SARS-CoV-2 NSP3 Mac1 (Severe acute respiratory syndrome coronavirus 2, UniProt P0DTD1)
- Experiment: biochemical
- Assay type: binding
- Cond: MIDAS hit compounds and analogues, 125 µM; read-out: Inhibition at top concentration of 125 µM (%)
Hi there, I'd appreciate the recorded inhibition at 125 µM for every entry that follows.
Numbers only, in %.

Illustrative cases are given below, each with its answer.
| Compound | inhibition at 125 µM (%) |
| --- | --- |
| CCn1ncc2c(C(=O)N(C)Cc3ccccc3C)cc(-c3cccs3)nc21 [IAL-MD0042] | 20.9 |
| CCn1ncc2c(C(=O)Nc3ncc(C)s3)cc(-c3cccs3)nc21 [IAL-MD0026] | 11.1 |
| CCn1ncc2c(C(=O)N3CCCC(C)C3)cc(-c3ccccc3)nc21 (stereo not drawn) [IAL-MD0096] | 3.9 |
| Cn1ccc2c(-c3ccc(C(=O)N4CCCC4)cn3)ccnc21 [IAL-MD0142] | 37.9 |
| CC(=O)Nc1cccc(C(=O)N2CCC(c3c[nH]c4ncccc34)CC2)c1 [IAL-MD0078] | 10.5 |

I'm hoping you can list inhibition at 125 µM for every compound here, please.
1. COc1ccc(-c2cc(C(=O)Nc3ccc4ccccc4c3)c3ccccc3n2)cc1 [IAL-MD0118]
2. CC(=O)Nc1ccc(C=Cc2cc(C(=O)O)c3cc(C)ccc3n2)cc1 [IAL-MD0059]
3. CCn1ncc2c(C(=O)N3CCCC3c3ccc(OC)cc3)cc(-c3cccs3)nc21 (stereo not drawn) [IAL-MD0066]
4. Cc1cc(CN(C)C(=O)c2cc(-c3cccs3)nc3c2cnn3C(C)C)no1 [IAL-MD0073]

Result:
1: 25.6; 2: 63; 3: 13.5; 4: 47

----------
- Test target: SARS-CoV-2 NSP3 Mac1 (Severe acute respiratory syndrome coronavirus 2, UniProt P0DTD1)
- Experiment: biochemical
- Assay type: binding
- Cond: MIDAS hit compounds and analogues, 125 µM; read-out: Inhibition at top concentration of 125 µM (%)
Yes means recorded inhibition at 125 µM is 20% or above; No means it is below 20%.

// known answers, use as guide
| Smiles representation | Label value |
| --- | --- |
| COc1ccc(-c2cc(C(=O)Nc3nnc[nH]3)c3ccccc3n2)cc1 | No |
| COc1ncccc1C(=O)N1CCC(c2c[nH]c3ncccc23)CC1 | No |
| CC(C)n1ncc2c(C(=O)N3CCNC(=O)C3(C)C)cc(-c3cccs3)nc21 | Yes |
| COc1ccc(-c2cc(C(=O)NCC(F)(F)F)c3ccccc3n2)cc1 | Yes |

Now turn to the next compound.
Task: # check: inhibition at 125 µM of "COc1ccc(-c2cc(C(=O)Nc3ccc(S(C)(=O)=O)cc3)c3ccccc3n2)cc1" is greater than or equal to 20%
Result: No

----------
- Test target: SARS-CoV-2 NSP3 Mac1 (Severe acute respiratory syndrome coronavirus 2, UniProt P0DTD1)
- Experiment: biochemical
- Format: binding
- Cond: FDA-approved compound library primary screen, 50 µM, single shot
Counter-ions that a name gives are not always drawn.
Measured property: inhibition at 50 µM (%)
Numbers only, in %.

Below, 4 molecules whose answers are already recorded.
| Molecule | Unit string | inhibition at 50 µM |
| --- | --- | --- |
| O=C(O)CCCC[C@@H]1SC[C@@H]2NC(=O)N[C@@H]21 [Biotin, reference compound] | % | 108 |
| Cc1ccc(C(=O)Nc2ccc(S(=O)(=O)O)c3cc(S(=O)(=O)O)cc(S(=O)(=O)O)c23)cc1NC(=O)c1cccc(NC(=O)Nc2cccc(C(=O)Nc3cc(C(=O)Nc4ccc(S(=O)(=O)O)c5cc(S(=O)(=O)O)cc(S(=O)(=O)O)c45)ccc3C)c2)c1 [Suramin hexasodium, reference compound] | % | 55.8 |
| O=c1c2ccccc2[se]n1-c1ccccc1 [Ebselen, reference compound] | % | 108 |
| CC(=O)OCC1=C(C(=O)O)N2C(=O)[C@@H](NC(=O)CCC[C@@H](N)C(=O)O)[C@H]2SC1 [Cephalosporin C sodium, reference compound] | % | 89.8 |

inhibition at 50 µM recorded for this molecule, C=C1c2cccc(O)c2C(=O)C2=C(O)[C@]3(O)C(=O)C(C(N)=O)=C(O)[C@@H](N(C)C)[C@@H]3[C@@H](O)[C@H]12 [Methacycline hydrochloride, reference compound] , is 86.8

----------
- Test target: SARS-CoV-2 NSP3 Mac1 (Severe acute respiratory syndrome coronavirus 2)
- Experiment: biochemical
- Format: binding
- Cond: MIDAS hit compounds and analogues, 125 µM
Measured property: Inhibition at top concentration of 125 µM (%)

| Smiles representation | Endpoint value |
| --- | --- |
| CCn1ncc2c(C(=O)Nc3cccc(NC(C)=O)c3)cc(-c3ccccc3)nc21 | Not measurable |
| Cc1ccc(Cn2ncc3c(C(=O)N4CCNC(=O)C4)cc(C)nc32)cc1 | Not measurable |

----------
- Test target: UniProt:P0DTD1
- Experiment: biochemical
- Type: binding
- Cond: MIDAS compound library primary screen, 25 µM
Measured property: inhibition at 25 µM (%)
Give bare numbers, in %.

Sample records with inhibition at 25 µM:
| Compound | Measured property | Endpoint value |
| --- | --- | --- |
| CC(=O)N1CCc2nc(N)c(C#N)c(-c3cccc(-c4ccco4)c3)c2C1 [ARUK4004310-001-001] | inhibition at 25 µM | 61 |
| Nc1c(C(=O)NC2CC2)sc2nc(-c3ccccn3)ccc12 [IAL-MD0017] | inhibition at 25 µM | 58.7 |
| NC(=O)[C@@H]1CCCN1C(=O)c1cc(-n2cccc2)ccc1Cl [ARUK4000702-001-001] | inhibition at 25 µM | 45.8 |

Next compound, inhibition at 25 µM to be filled in.
response.value for O=C(Nc1ccc2cc[nH]c2c1)c1csc(NCC2CCCO2)n1 (stereo not shown) [ARUK4000671-001-001, O=C(Nc1ccc2cc[nH]c2c1)c1csc(n1)NCC1CCCO1] (field: inhibition at 25 µM) = 106

----------
- Test target: SARS-CoV-2 NSP3 Mac1 (Severe acute respiratory syndrome coronavirus 2, UniProt P0DTD1)
- Experiment: biochemical
- Assay type: binding
- Cond: FDA-approved compound library primary screen, 50 µM, single shot
Measured property: NSP3 Mac1 inhibition at 50 µM (%)
One number for each entry, in %.

| Compound | Test target | Measured property | Unit string | Endpoint value |
| --- | --- | --- | --- | --- |
| CN1CCCN=C1/C=C/c1cccc(O)c1 [Oxantel pamoate, reference compound] | SARS-CoV-2 NSP3 Mac1 (Severe acute respiratory syndrome coronavirus 2, UniProt P0DTD1) | NSP3 Mac1 inhibition at 50 µM (%) | % | 56 |
| N.N.O=C([O-])C1(C(=O)[O-])CCC1.[Pt+2] [Carboplatin, reference compound] | SARS-CoV-2 NSP3 Mac1 (Severe acute respiratory syndrome coronavirus 2, UniProt P0DTD1) | NSP3 Mac1 inhibition at 50 µM (%) | % | 97.3 |

// for each compound in input: emit NSP3 Mac1 inhibition at 50 µM (%)
1. O=c1c2ccccc2[se]n1-c1ccccc1 [Ebselen, reference compound]
2. Nc1ccc(S(=O)(=O)[O-])cc1.Nc1ccc(S(=O)(=O)[O-])cc1.O.O.O.O.[Zn+2] [Sulfanilate zinc, reference compound]

Result:
107
44.2

----------
- Test target: SARS-CoV-2 NSP3 Mac1 (Severe acute respiratory syndrome coronavirus 2, UniProt P0DTD1)
- Experiment: biochemical
- Assay type: binding
- Cond: MIDAS hit compounds and analogues, 125 µM; read-out: Inhibition at top concentration of 125 µM (%)
I'd be grateful if you could share measured inhibition at 125 µM for these entries.
Numbers only, in %.

Example entries begin here.
| Molecule | Endpoint value |
| --- | --- |
| CC(C)n1ncc2c(C(=O)N(C)Cc3ccc4c(c3)OCO4)cc(-c3cccs3)nc21 [IAL-MD0065] | 9.5 |
| COc1ccc(NC(=O)c2cc(-c3ccc(C)cc3)nc3onc(C)c23)cc1 [IAL-MD0037] | 9.3 |
| CC(C)n1ncc2c(C(=O)Nc3ccn(C)n3)cc(-c3cccs3)nc21 [IAL-MD0090] | 11 |
| CC(C)n1ncc2c(C(=O)N3CCCCC3C(=O)N3CCCC3)cc(-c3cccs3)nc21 (stereo not shown) [IAL-MD0080] | 45.9 |
| O=C(c1ccc(NCC2CC2)nc1)N1CCC(c2c[nH]c3ncccc23)CC1 [IAL-MD0110] | 7.8 |

Batch: inhibition at 125 µM for all items listed.
1. COc1ccc(-c2cc(C(=O)N(C)C)c3ccccc3n2)cc1 [IAL-MD0088]
2. CC(C)n1ncc2c(C(=O)N3CCCC(C)(O)C3)cc(-c3cccs3)nc21 (stereo not shown) [IAL-MD0086]
3. Cn1ccc2c(-c3ncccc3C(N)=O)ccnc21 [IAL-MD0136]
4. Cc1nn(C)c2nc(-c3cccs3)cc(C(=O)NC3CCOCC3)c12 [IAL-MD0121]
5. CN1CCN(C(=O)c2cncc(-c3ccnc4c3ccn4C)n2)CC1 [IAL-MD0146]

Result:
1: 79.4; 2: 47.7; 3: 49.7; 4: 17.8; 5: 3.7

Where these numbers come from: paper PMC9965906
